Data provenance: the supplement of paper PMC7877785

# assay-notes: self-splicing fitness, log relative to wild type (ln ratio); higher = more splicing; Tetrahymena group I intron in knt gene, E. coli kanamycin selection, DiMSum; sequences stand for … in CUCUCU…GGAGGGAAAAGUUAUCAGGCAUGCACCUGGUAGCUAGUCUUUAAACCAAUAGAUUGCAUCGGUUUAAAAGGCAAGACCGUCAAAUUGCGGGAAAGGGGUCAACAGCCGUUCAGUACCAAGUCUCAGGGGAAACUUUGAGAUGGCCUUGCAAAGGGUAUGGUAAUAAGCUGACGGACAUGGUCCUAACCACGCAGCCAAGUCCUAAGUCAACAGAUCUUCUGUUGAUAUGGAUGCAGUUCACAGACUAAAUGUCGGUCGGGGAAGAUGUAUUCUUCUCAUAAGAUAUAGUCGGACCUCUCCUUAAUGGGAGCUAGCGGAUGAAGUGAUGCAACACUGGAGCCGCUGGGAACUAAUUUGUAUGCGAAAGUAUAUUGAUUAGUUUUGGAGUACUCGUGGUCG;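 further: selection with 25 µg/mL kanamycin versus none on LB agar overnight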
# assay-conditions: 30 °C
sequences and their reported self-splicing fitness (ln)
value-kind: self-splicing fitness (ln)

1. AAUAAGCAAUAUUACGCAUU = -2.97
2. UCACAGCAAUAUUACGAUCU = -2.71
3. GGGGAGCAAUAUUACGCGUC = -3.26

###

# assay-notes: self-splicing fitness, log relative to wild type (ln ratio); higher = more splicing; Tetrahymena group I intron in knt gene, E. coli kanamycin selection, DiMSum; sequences stand for … in CUCUCU…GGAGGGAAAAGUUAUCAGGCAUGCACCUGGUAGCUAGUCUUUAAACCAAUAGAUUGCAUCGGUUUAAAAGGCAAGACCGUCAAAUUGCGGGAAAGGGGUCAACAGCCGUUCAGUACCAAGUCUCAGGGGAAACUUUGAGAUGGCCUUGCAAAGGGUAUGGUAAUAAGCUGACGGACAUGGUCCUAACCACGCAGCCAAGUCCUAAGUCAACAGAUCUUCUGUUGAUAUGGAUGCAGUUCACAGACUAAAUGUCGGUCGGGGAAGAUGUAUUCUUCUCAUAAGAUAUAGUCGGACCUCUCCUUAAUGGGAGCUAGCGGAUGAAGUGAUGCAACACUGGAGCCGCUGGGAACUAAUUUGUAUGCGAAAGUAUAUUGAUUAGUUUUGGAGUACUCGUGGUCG
# assay-conditions: 37 °C
# key: entry, value: self-splicing fitness (ln)
value-kind: self-splicing fitness (ln)

1) CCUUAGCAAUAUUACGCUGG = -2.43
2) UGUGAGCAAUAUUACGACAA = -1.68
3) UAUAAGCAAUAUUACGUUAG = -0.812
4) ACAUAGCAAUAUUACGGGCU = -0.715
5) UCCAAGCAAUAUUACGAUUG = -1.78
6) UUGCAGCAAUAUUACGUCCU = -0.682
7) UACCAGCAAUAUUACGGUCA = 0.125
8) ACUGAGCAAUAUUACGGGGU = -3.13
9) CUUCAGCAAUAUUACGACUG = -0.505
10) CGGAAGCAAUAUUACGCCGU = -1.91
11) UUAGAGCAAUAUUACGCGGC = -0.994
12) GAUAAGCAAUAUUACGAGUA = -1.45
13) AGUAAGCAAUAUUACGUUAA = -1.63
14) CGAAAGCAAUAUUACGGGAC = -2.59
15) AGGAAGCAAUAUUACGUAUA = -2.16
16) ACCUAGCAAUAUUACGUGAA = -1.18
17) AGAAAGCAAUAUUACGCCUC = -0.948
18) AUUAAGCAAUAUUACGAACC = -0.847
19) AGCAAGCAAUAUUACGUGAC = -1.85
20) UCUCAGCAAUAUUACGGCAU = -2.4
21) CAGUAGCAAUAUUACGAGCA = -2.3
22) GAAUAGCAAUAUUACGCCUA = -0.0436
23) AAUUAGCAAUAUUACGGUUA = -0.183
24) UGCUAGCAAUAUUACGUGCA = -1.99
25) ACCUAGCAAUAUUACGCACU = 0.3
26) UUUUAGCAAUAUUACGUCUA = -0.292
27) GUCGAGCAAUAUUACGUCAA = -2.32
28) GUAUAGCAAUAUUACGAGAG = -2.9
29) GGGCAGCAAUAUUACGUAAC = -0.668
30) CUCGAGCAAUAUUACGCGUG = -2.03
31) UGUGAGCAAUAUUACGCCGG = -1.98
32) GAACAGCAAUAUUACGGUAA = -0.286
33) CGCCAGCAAUAUUACGCUGA = -2.24
34) GAGUAGCAAUAUUACGAACU = -0.323
35) AUACAGCAAUAUUACGCCUA = -0.472
36) CCCCAGCAAUAUUACGUUGC = -2.78
37) CCACAGCAAUAUUACGGGAU = -2.33
38) UCAUAGCAAUAUUACGUAAG = -1.91
39) AUCAAGCAAUAUUACGGUUA = -0.342
40) CGCUAGCAAUAUUACGUAAA = -1.33
41) AUAGAGCAAUAUUACGUAGU = -0.153
42) CUACAGCAAUAUUACGAUGU = -2.44
43) AUCCAGCAAUAUUACGGUGU = -0.834
44) GCCAAGCAAUAUUACGUUAA = -2.89
45) GGGCAGCAAUAUUACGCGCA = -0.184
46) GCCGAGCAAUAUUACGCGGG = -2.3
47) AAGUAGCAAUAUUACGCGAG = -0.889
48) ACGCAGCAAUAUUACGACAU = 0.305
49) GCAGAGCAAUAUUACGAUUC = -0.2
50) CCCAAGCAAUAUUACGUUGG = -2.28
51) ACACAGCAAUAUUACGUCGA = -0.852
52) GCCGAGCAAUAUUACGGACA = 0.233
53) CUGCAGCAAUAUUACGGCAA = 0.202
54) GAACAGCAAUAUUACGACCA = -0.113
55) CGGUAGCAAUAUUACGAAUU = -2.34
56) UCUUAGCAAUAUUACGUUAA = -2.67
57) CCCAAGCAAUAUUACGUAAG = -1.87
58) CUGUAGCAAUAUUACGUGCU = -2.39
59) GUCAAGCAAUAUUACGCCAU = -3.01
60) UAAUAGCAAUAUUACGUCGU = -0.94
61) ACGCAGCAAUAUUACGGCAG = -1.08
62) CAGUAGCAAUAUUACGCAUU = -2.5
63) GCAAAGCAAUAUUACGUCUG = -1.69

###

# assay-notes: self-splicing fitness, log relative to wild type (ln ratio); higher = more splicing; Tetrahymena group I intron in knt gene, E. coli kanamycin selection, DiMSum; sequences stand for … in CUCUCU…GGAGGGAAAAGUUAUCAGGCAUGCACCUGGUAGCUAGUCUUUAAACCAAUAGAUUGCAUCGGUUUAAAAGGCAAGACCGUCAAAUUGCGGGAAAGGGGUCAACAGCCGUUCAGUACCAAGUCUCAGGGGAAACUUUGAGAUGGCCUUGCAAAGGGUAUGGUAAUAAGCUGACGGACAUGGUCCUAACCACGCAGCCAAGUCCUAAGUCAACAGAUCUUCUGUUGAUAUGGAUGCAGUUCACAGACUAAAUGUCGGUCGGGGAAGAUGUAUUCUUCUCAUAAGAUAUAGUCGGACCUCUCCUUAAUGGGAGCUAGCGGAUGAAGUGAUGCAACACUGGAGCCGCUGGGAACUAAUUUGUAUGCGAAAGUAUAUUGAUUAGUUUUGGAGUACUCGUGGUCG
# assay-conditions: 30 °C
value-kind: self-splicing fitness (ln)

1. AGGUAGCAAUAUUACGCUUU = -3.04
2. UCACAGCAAUAUUACGCAGU = -4.13
3. UCCGAGCAAUAUUACGUACA = -2.89
4. GUUAAGCAAUAUUACGCUCG = -0.539
5. UUUAAGCAAUAUUACGUUCG = -0.639
6. CACAAGCAAUAUUACGCGUA = -1.64
7. GGCCAGCAAUAUUACGGCGA = 0.0969
8. CGUAAGCAAUAUUACGAGUA = -4.09
9. GUUCAGCAAUAUUACGAUAU = -0.361
10. GCUAAGCAAUAUUACGUCCA = -1.94
11. CGUUAGCAAUAUUACGAAAU = -3.82
12. GCAUAGCAAUAUUACGGGAA = -2.52
13. AACCAGCAAUAUUACGCCAA = -2.55
14. GUUGAGCAAUAUUACGCGAA = -3.43
15. AACCAGCAAUAUUACGAACU = -0.369
16. CGUGAGCAAUAUUACGCUGC = -2.64
17. ACACAGCAAUAUUACGCCUG = -0.898
18. AGGCAGCAAUAUUACGGCGA = -0.378
19. CACGAGCAAUAUUACGUCCC = -1.45
20. CCGGAGCAAUAUUACGAAAG = -2.31
21. GUUAAGCAAUAUUACGUCCG = -1.77
22. AUGCAGCAAUAUUACGGUCU = -0.211
23. AUUAAGCAAUAUUACGCUCU = -0.588
24. GCGAAGCAAUAUUACGAGCG = -2.04
25. GGGGAGCAAUAUUACGUAGG = -2.68
26. UAGAAGCAAUAUUACGGUCA = -0.346
27. GGUGAGCAAUAUUACGCGCU = -1.7
28. ACAGAGCAAUAUUACGGGCU = -3.02
29. AGUUAGCAAUAUUACGAGUC = -2.76
30. GCAGAGCAAUAUUACGCUUG = -3.5
31. UAGAAGCAAUAUUACGAGAC = -2.67
32. GUACAGCAAUAUUACGCUAA = -2.37
33. GGCAAGCAAUAUUACGCAAG = -4.16
34. AGUUAGCAAUAUUACGAACG = -0.391
35. ACUAAGCAAUAUUACGGCAA = -0.655
36. CCCUAGCAAUAUUACGGUGG = -4.27
37. GUACAGCAAUAUUACGUCGC = -2.57
38. GAAGAGCAAUAUUACGGAGA = -3.22
39. GCCGAGCAAUAUUACGAUAG = -2.94
40. AACGAGCAAUAUUACGUAGG = -3.93
41. AAGGAGCAAUAUUACGCUGA = -3.54
42. AGUAAGCAAUAUUACGGGGU = -3.24
43. CAGGAGCAAUAUUACGUUCG = -0.032
44. UAUGAGCAAUAUUACGGGCG = -2.75
45. CAGGAGCAAUAUUACGCUAA = -3.29
